assay: Plasma pharmacokinetics after single and repeated oral doses; type: in vivo, healthy adult participants (human); conditions: human, plasma, oral, 20 mg, Part 1a single 20 mg fasted; read-out: Cmax, mean
READOUT_KIND: Cmax (ng/mL)
I only need the number, in ng/mL, no unit after it.

Request: # get_value(readout='Cmax', item= `CC(C)(C(=O)N1CCOc2c(C#N)cncc2C1)C(F)F` )
Result: 245

###

test: Plasma pharmacokinetics after single and repeated oral doses; assay type: in vivo, healthy adult participants (human); conditions: human, plasma, oral, 20 mg, Part 2 Day 1, 20 mg QD, fasted; read-out: Cmax, mean ± SD
READOUT_KIND: Cmax

Request: Param item = `CC(C)(C(=O)N1CCOc2c(C#N)cncc2C1)C(F)F` ; retrieve measured Cmax.
Result: 245 ng/mL

###

experiment: 6-month rat toxicology study (NOAEL exposure); assay type: in vivo; settings: rat, in vivo; female rats, end of Week 26, 6-month study; read-out: AUC0-24 at the NOAEL
READOUT_KIND: AUC(0-t) (µM·h)
Could you give me the number in µM·h? Just the number is fine.

Request: Fill blank: measured AUC(0-t) of the molecule CC(C)(C(=O)N1CCOc2c(C#N)cncc2C1)C(F)F [Compound 1] is ____.
Result: 126

###

Assay: CSF concentration, CSF-to-unbound plasma concentration ratio (Part 1b)
Type: in vivo, healthy adult participants (human)
Details: human, CSF / unbound plasma, oral, Part 1b single dose fed, [T1H-T3H]; read-out: CSF-to-unbound Plasma concentration ratio, median
Experimental: Compound 1 concentrations in CSF were measured after single oral dosing in two dedicated cohorts in Part 1b. Lumbar puncture was performed for CSF collection and only one CSF sample per participant was collected on Day 1. Given the limited number of CSF PK samples that were collected in this study, CSF PK parameters were not determined; instead, Compound 1 concentrations in CSF were reported and concentration ratio between CSF and unbound plasma was calculated. […]
READOUT_KIND: Kp
Would you mind answering with just the numeric figure?

Request: Fill blank: measured Kp of the molecule CC(C)(C(=O)N1CCOc2c(C#N)cncc2C1)C(F)F [Compound 1] is ____.
Result: 0.732

###

test: Plasma pharmacokinetics after single and repeated oral doses; type: in vivo, healthy adult participants (human); conditions: human, plasma, oral, 10 mg, Part 1b single 10 mg fed; read-out: AUClast, mean
READOUT_KIND: AUC(0-t) (ng·h/mL)
Provide the reading as a plain figure in ng·h/mL.

Request: Request the reported AUC(0-t) associated with `CC(C)(C(=O)N1CCOc2c(C#N)cncc2C1)C(F)F`
Result: 1220

###

assay: Plasma pharmacokinetics after single and repeated oral doses; format: in vivo, healthy adult participants (human); conditions: human, plasma, oral, 10 mg, Part 2 Day 14 steady state, 10 mg QD; read-out: Cmax, mean ± SD
READOUT_KIND: Cmax (ng/mL)
Report the value in ng/mL with no unit label.

Request: Param item = CC(C)(C(=O)N1CCOc2c(C#N)cncc2C1)C(F)F [Compound 1] ; retrieve measured Cmax.
Result: 164

###

Test: CSF concentration, CSF-to-unbound plasma concentration ratio (Part 1b)
Assay type: in vivo, healthy adult participants (human)
Conditions: human, CSF / unbound plasma, oral, Part 1b single dose fed, [T4H-T6H]; read-out: CSF-to-unbound Plasma concentration ratio, mean
Protocol: Compound 1 concentrations in CSF were measured after single oral dosing in two dedicated cohorts in Part 1b. Lumbar puncture was performed for CSF collection and only one CSF sample per participant was collected on Day 1. Given the limited number of CSF PK samples that were collected in this study, CSF PK parameters were not determined; instead, Compound 1 concentrations in CSF were reported and concentration ratio between CSF and unbound plasma was calculated. […]
READOUT_KIND: Kp
Returns: the value as a bare number; no unit string appended.

Request: What value of measured Kp is listed for `CC(C)(C(=O)N1CCOc2c(C#N)cncc2C1)C(F)F` ?
Result: 0.804

###

test: Plasma pharmacokinetics after single and repeated oral doses; assay type: in vivo, healthy adult participants (human); settings: human, plasma, oral, 15 mg, Part 2 Day 14 steady state, 15 mg BID; read-out: Cmax, mean ± SD
READOUT_KIND: Cmax (ng/mL)
# unit: ng/mL | format: bare number

Request: So what does the record say about Cmax for CC(C)(C(=O)N1CCOc2c(C#N)cncc2C1)C(F)F [Compound 1] ?
Result: 284

###

experiment: Plasma pharmacokinetics after single and repeated oral doses; format: in vivo, healthy adult participants (human); details: human, plasma, oral, Part 2, single or repeated administration, fasted; read-out: Median Tmax across dose levels
READOUT_KIND: Tmax

Request: Item `CC(C)(C(=O)N1CCOc2c(C#N)cncc2C1)C(F)F` has what recorded Tmax?
Result: 1 to 2 h

###

Experiment: Plasma pharmacokinetics after single and repeated oral doses
Format: in vivo, healthy adult participants (human)
Conditions: human, plasma, oral, 40 mg, Part 1a single 40 mg fasted; read-out: Cmax, mean
Description: In Part 1a, plasma samples were collected before dosing and at 10 post-dose timepoints on Day 1 (30 minutes, 1 hour, followed by every hour until 6 hours, and then every 2 hours until 12 hours), and single samples on Day 2 (at 24 hours) and Day 3 (at 48 hours). In Part 1b, timepoints included at least pre-dose and at 10 post-dose timepoints, including plasma sampling at the same time of CSF sampling. […]
READOUT_KIND: Cmax (ng/mL)
Note: unit ng/mL is implicit; provide only the numeric part.

Request: Suppose we examine the compound CC(C)(C(=O)N1CCOc2c(C#N)cncc2C1)C(F)F [Compound 1] ; what Cmax value has been reported?
Result: 576

###

test: Plasma pharmacokinetics after single and repeated oral doses; assay type: in vivo, healthy adult participants (human); conditions: human, plasma, oral, 10 mg, Part 2 Day 1, 10 mg QD, fasted; read-out: Cmax, mean ± SD
READOUT_KIND: Cmax (ng/mL)
Give just the numeric value; ng/mL need not be written.

Request: I am curious: what Cmax value has been reported for `CC(C)(C(=O)N1CCOc2c(C#N)cncc2C1)C(F)F` ?
Result: 161

###

test: Plasma pharmacokinetics after single and repeated oral doses; format: in vivo, healthy adult participants (human); settings: human, plasma, oral, 40 mg, Part 1b single 40 mg fed; read-out: AUClast, mean
READOUT_KIND: AUC(0-t) (ng·h/mL)
Please respond with the number in ng·h/mL and leave the unit unwritten.

Request: Look up AUC(0-t) for this compound: `CC(C)(C(=O)N1CCOc2c(C#N)cncc2C1)C(F)F`
Result: 4100

###

assay: Plasma pharmacokinetics after single and repeated oral doses; type: in vivo, healthy adult participants (human); conditions: human, plasma, oral, 20 mg, 20 mg BID; read-out: AUC0-24 h (corresponding to AUC0-12 h*2)
READOUT_KIND: AUC(0-t) (µM·h)
Dear colleague, please return just the value in µM·h, with no unit written.

Request: Fill in: AUC(0-t) of CC(C)(C(=O)N1CCOc2c(C#N)cncc2C1)C(F)F [Compound 1] is ___
Result: 15

###

assay: CSF concentration, CSF-to-unbound plasma concentration ratio (Part 1b); format: in vivo, healthy adult participants (human); conditions: human, CSF / unbound plasma, oral, time intervals [T1H-T3H] or [T4H-T6H]; read-out: Ratio CSF to unbound plasma
READOUT_KIND: Kp

Request: If you can, please state the reported Kp value of `CC(C)(C(=O)N1CCOc2c(C#N)cncc2C1)C(F)F` .
Result: ~0.8

###

assay: CSF concentration, CSF-to-unbound plasma concentration ratio (Part 1b); format: in vivo, healthy adult participants (human); details: human, CSF / unbound plasma, oral, Part 1b single dose fed, [T4H-T6H]; read-out: CSF-to-unbound Plasma concentration ratio, geometric mean
READOUT_KIND: Kp

Request: Given the entry `CC(C)(C(=O)N1CCOc2c(C#N)cncc2C1)C(F)F` , report its measured Kp.
Result: 0.755

###

assay: CSF concentration, CSF-to-unbound plasma concentration ratio (Part 1b); type: in vivo, healthy adult participants (human); conditions: human, CSF / unbound plasma, oral, Part 1b single dose fed, [T1H-T3H]; read-out: CSF-to-unbound Plasma concentration ratio, geometric mean
READOUT_KIND: Kp

Request: Kp for `CC(C)(C(=O)N1CCOc2c(C#N)cncc2C1)C(F)F` ?
Result: 0.817

###

Assay: Plasma pharmacokinetics after single and repeated oral doses
Type: in vivo, healthy adult participants (human)
Details: human, plasma, oral, 30 mg, Part 1a single 30 mg fasted; read-out: Cmax, mean
Experimental: In Part 1a, plasma samples were collected before dosing and at 10 post-dose timepoints on Day 1 (30 minutes, 1 hour, followed by every hour until 6 hours, and then every 2 hours until 12 hours), and single samples on Day 2 (at 24 hours) and Day 3 (at 48 hours). In Part 1b, timepoints included at least pre-dose and at 10 post-dose timepoints, including plasma sampling at the same time of CSF sampling. […]
READOUT_KIND: Cmax (ng/mL)
Value expressed in ng/mL; do not type the unit.

Request: Data request, read-out Cmax, for CC(C)(C(=O)N1CCOc2c(C#N)cncc2C1)C(F)F [Compound 1]
Result: 439
